Give pIC50 for every item shown.
# Tested on: H9c2
# experimental_protocol: cardiomyocyte survival under oxidative or metabolic stress – cell-based, panel, H9c2 and HL-1, H2O2, 2-deoxyglucose, ATP luminescence, SAR follow-up (AID 651642)
# measurement_setup: H9c2/HL-1 cardiomyocyte 2-deoxyglucose damage, mean of runs, with 2-deoxyglucose, mean IC50 across panel
pIC50: −log10 of the molar value.

Provide reported pIC50 for each item, in the same order as listed.
1. CCOC(=O)c1cccc(NC(=O)c2cc(-c3cc(OC)c(OC)c(OC)c3)nc3cc(Cl)ccc23)c1
2. COC(=O)CNC(=O)c1cc(-c2cc(OC)c(OC)c(OC)c2)nc2ccccc12
3. CCOC(=O)c1ccccc1NC(=O)c1cc(-c2cc(OC)c(OC)c(OC)c2)nc2ccccc12
4. COC(=O)CNC(=O)c1cccc(NC(=O)c2cc(-c3cc(OC)c(OC)c(OC)c3)nc3ccccc23)c1
5. COc1ccc2c(c1OC)C(=O)N1c3ccccc3C(=O)N(Cc3ccc(F)cc3)C21 (centres undefined)
6. CCOC(=O)c1cccc(NC(=O)CNC(=O)c2cc(-c3cc(OC)c(OC)c(OC)c3)nc3ccc(F)cc23)c1
7. COc1ccc2c(c1OC)C(=O)N1c3ccccc3C(=O)N(Cc3ccncc3)C21 (centres undefined)
8. CCOC(=O)c1cccc(NC(=O)CNC(=O)c2cc(-c3cc(OC)c(OC)c(OC)c3)nc3ccc(C)cc23)c1

["< 4.10", "< 4.10", "< 4.10", 5.12, "< 4.10", 5.42, "< 4.10", 5.57]

pIC50 for COc1cc(-c2cc(C(=O)Nc3cccc(C(C)=O)c3)c3cc(C)ccc3n2)cc(OC)c1OC ?
< 4.10
